B1: TRIM63 (parent)
chain: QRITQEQEKKLSFIEALIQQYQEQ

Variants of: B1
Experiment: protein stability index of a GFP-peptide fusion (GPS, HEK-293T) (PSI 1-6); higher = more stable;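 also: lentivirally expressed fusions sorted by FACS into six bins by GFP to DsRed ratio, PSI derived from sequencing read proportions per bin multiplied by bin number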
Conditions: c terminus: a fixed tail appended
// reported protein stability index for each item listed
Could you respond with only the numeric value?

Answered examples (5):
QRITQEQEKKLSFIEALIRQYQEQ [Q19R] ... 1.38
QRITQEQEYKLSFIEALIQQYQEQ [K9Y] ... 2.2
QRITQEQEKKLSFTEALIQQYQEQ [I14T] ... 2.35
QRRTQEQEKKLSFIEALIQQYQEQ [I3R] ... 2.76
QRITQEQHKKLSFIEALIQQYQEQ [E8H] ... 1.75

Task: Sample QRITQEQEKGLSFIEALIQQYQEQ [K10G] — what was its protein stability index?
Output: 3.58

The reported numbers originate from the supplement of paper PMC10567573.
